B1: FAM9B (parent)
chain: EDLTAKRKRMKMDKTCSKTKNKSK

Variants of: B1
Experiment: protein stability index of a GFP-peptide fusion (GPS, HEK-293T) (PSI 1-6); higher = more stable;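 note: lentivirally expressed fusions sorted by FACS into six bins by GFP to DsRed ratio, PSI derived from sequencing read proportions per bin multiplied by bin number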
Details: c terminus: a fixed tail appended
Binary classification by protein stability index, with 5 as an inclusive lower bound for T; all other cases are F.

## Input Please check the record EDLTAKRKRMKMDKTCSKTKNWSK [K22W] and state if its protein stability index is at or above 5.
## Output F

## Input Hi, just wondering whether EDLTAKRKRMKMDKTCSKYKNKSK [T19Y] shows protein stability index of 5 or higher.
## Output F

## Input Is protein stability index at least 5? Consider EDLTAKRKRMKMDKTCSKTKNDSK [K22D]
## Output T

## Input Form field: protein stability index at least 5? Entry: EDLTAKRKRRKMDKTCSKTKNKSK [M10R]
## Output T

## Input Entry EDLTAKRIRMKMDKTCSKTKNKSK [K8I] : is its protein stability index no less than 5?
## Output F

## Input Quick check, protein stability index >= 5? EDLTAKRKRMKMDKTCHKTKNKSK [S17H]
## Output F

Continuing:
## Input Item EDLRAKRKRMKMDKTCSKTKNKSK [T4R] with protein stability index of 5 or above?
## Output F

## Input State whether the measured protein stability index reaches 5, counting equality as reaching it, for EDLTAKRKRMKMDKTCSKTKNQSK [K22Q]
## Output F
